- Tgt: T1, human CD71 extracellular domain (human, UniProt P02786 89-760)
- T1 construct: also called hCD71; human CD71-ECD
- Test method notes: primary ELISA, luminescence; also: test concentration or dose not given here
Recorded metric: RLU (RLU)
Kindly answer with a numeric value in RLU, unit omitted.

Solved entries (count: 3):
1. CD71-binding FN3 domain of SEQ ID NO: 233 (designed binder) MSLPAPKNLVVSRVTEDSARLSWTAPDAAFDSFFIGYLEPQPPGEAIHLSVPGSERSYDLTGLKPGTEYWVQIGGVKGGNWSAPLSAIFTT :: 2.69e+06
2. CD71-binding FN3 domain of SEQ ID NO: 228 (designed binder) MSLPAPKNLVVSRVTEDSARLSWTAPDAAFDSFEIGYWENAYKGEAIVLTVPGSERSYDLTGLKPGTEYVVFIGGVKGGVWSKPLSVIFTT :: 2.66e+06
3. CD71-binding FN3 domain of SEQ ID NO: 221 (designed binder) MSLPAPKNLVVSRVTEDSARLSWTAPDAAFDSFFIGYLEPRPPGEAIHLYVPGSERSYDLTGLKPGTEYNITIQGVKGGFPSIPLIASFTT :: 5.75e+06

Now for the binder whose RLU we want.
IN: May I ask what RLU has been recorded for CD71-binding FN3 domain of SEQ ID NO: 222 (designed binder) MSLPAPKNLVVSRVTEDSARLSWTAPDAAFDSFFIGYLEPQPPGEAITLYVPGSERSYDLTGLKPGTEYNVTIQGVKGGFPSGPLIASFTT ?
OUT: 5.78e+06
